Quick list: differential viability (reversal) per entry.
- MEASUREMENT DESCRIPTION: reversal of MRP1-mediated doxorubicin resistance, pilot screen, H69AR cells, doxorubicin co-treatment (AID 601)
- CONDITION PARAMETERS: H69AR cells + 2 uM doxorubicin, CellTiter-Glo, 72 h; at 10 µM; hits give high values
Write the value in % as a bare number.

These recorded examples may help you get a feel for the data.
STRUCTURE SMILES STRING	READOUT KIND	UNIT	ENDPOINT VALUE
CCC(=O)Oc1ccc(/C(CC)=C(\CC)c2ccc(OC(=O)CC)cc2)cc1	differential viability (reversal)	%	-40.5
Nn1c(SCC(=O)NC2CCCCC2)nnc1-c1ccc(Cl)cc1	differential viability (reversal)	%	8.96
Cc1cccc(NC(=O)c2cc3ccccc3o2)c1	differential viability (reversal)	%	8.2
COC(=O)c1[nH]c2ccc(C)cc2c1NC(=O)CN1CCCc2ccccc21	differential viability (reversal)	%	-15.6

Now for the compound whose differential viability (reversal) we want.
Recorded differential viability (reversal) of CCOC(=O)C1CCN(CC(=O)Nc2c(C(=O)OC)[nH]c3ccc(Cl)cc23)CC1 , please.
34.9
